The values you see were collected from PubChem BioAssay AID1996.

# measurement-conditions: buffer; pH 7.4; 200.0 µM
measurement-label: solubility kinetic

Report measured solubility kinetic; entry is CC#CC(=O)N1CCCC(C(=O)c2ccc(SC)cc2)C1 (stereo unspecified)
> 45.2 µg/mL

Report measured solubility kinetic; entry is O=C(O)c1ccc(/C=N/O)cc1
> 24.8 µg/mL

Report measured solubility kinetic; entry is C=CCOc1ccc(/C=C/C(=O)OCC(=O)NC2CCCCCCC2)cc1
< 0.8 µg/mL

Report measured solubility kinetic; entry is COC(=O)/C=C1\N/C(=N\c2nc(C)cc(C)n2)N(c2ccccc2)C1=O
> 52.7 µg/mL

Report measured solubility kinetic; entry is CN1CCCN(C(=O)c2cccc(Cl)c2)CC1
> 37.9 µg/mL

Report measured solubility kinetic; entry is Cn1nc(C(=O)NCC(c2cccs2)N2CCOCC2)c2ccccc2c1=O (stereo unspecified)
> 59.8 µg/mL
